Sourced from IntAct's records for PubMed 18166655

B1: Death-associated inhibitor of apoptosis 2 (Drosophila melanogaster (Fruit fly)), Q24307 (parent)
chain: MTELGMELESVRLATFGEWPLNAPVSAEDLVANGFFATGNWLEAECHFCHVRIDRWEYGDQVAERHRRSSPICSMVLAPNHCGNVPRSQESDNEGNSVVDSPESCSCPDLLLEANRLVTFKDWPNPNITPQALAKAGFYYLNRLDHVKCVWCNGVIAKWEKNDNAFEEHKRFFPQCPRVQMGPLIEFATGKNLDELGIQPTTLPLRPKYACVDARLRTFTDWPISNIQPASALAQAGLYYQKIGDQVRCFHCNIGLRSWQKEDEPWFEHAKWSPKCQFVLLAKGPAYVSEVLATTAANASSQPATAPAPTLQADVLMDEAPAKEALALGIDGGVVRNAIQRKLLSSGCAFSTLDELLHDIFDDAGAGAALEVREPPEPSAPFIEPCQATTSKAASVPIPVADSIPAKPQAAEAVANISKITDEIQKMSVATPNGNLSLEEENRQLKDARLCKVCLDEEVGVVFLPCGHLATCNQCAPSVANCPMCRADIKGFVRTFLS
partner: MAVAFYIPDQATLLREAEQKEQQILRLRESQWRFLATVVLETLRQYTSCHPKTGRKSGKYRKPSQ

Variants of: B1
test_conditions: with rpr_drome rpr
quantity_kind: effect of a mutation on the interaction

C249G    with no effect
C46G    with no effect
